Where do these numbers come from? They come from ChEMBL document CHEMBL1208682.

Examples of compounds with documented MIC follow.
Test system: Mycobacterium tuberculosis
method-notes: Antituberculosis activity against multi drug-resistant Mycobacterium tuberculosis after 7 days using resazurin dye by broth microdilution assay
Format: functional
experimental-parameters: 168 h
Dear colleague, please return just the value in µM, with no unit written.

// solved cases for MIC follow
O=C(NNc1cc(C(F)(F)F)nc2c(C(F)(F)F)cccc12)Nc1ccc(F)cc1	12.5
Cc1nc[nH]c1/C=N/Nc1cc(C(F)(F)F)nc2c(C(F)(F)F)cccc12	6.25
CCCCCCC/C=N/Nc1cc(C(F)(F)F)nc2c(C(F)(F)F)cccc12	6.25
Cn1cccc1/C=N/Nc1cc(C(F)(F)F)nc2c(C(F)(F)F)cccc12	25

Request: Query for Mycobacterium tuberculosis: what MIC does the record show for FC(F)(F)c1cc(N/N=C/c2c[nH]cn2)c2cccc(C(F)(F)F)c2n1 ?
Response: 6.25

Request: Similarly, FC(F)C(F)(F)Oc1cccc(/C=N/Nc2cc(C(F)(F)F)nc3c(C(F)(F)F)cccc23)c1 ?
Response: 25

Request: Similarly, Cn1cc(Cl)c(/C=N/Nc2cc(C(F)(F)F)nc3c(C(F)(F)F)cccc23)n1 ?
Response: 6.25
